- method: Growth inhibition of human HOP92 cells after 48 hrs by sulforhodamine B assay
- Assay type: functional
- test.conditions: HOP-92, 48 h
# maps each entry to its GI50
metric.name: GI50

• COc1cc(-c2n[nH]nc2-c2ccc3c(c2)OCO3)cc(OC)c1OC = 120 nM
• COc1ccc(-c2n[nH]nc2-c2cc(OC)cc(OC)c2)cc1 = < 10 nM
• Clc1ccc(-c2n[nH]nc2-c2ccccn2)c(Cl)c1 = 3280 nM
• COc1ccc(-c2nn[nH]c2-c2cc(OC)c(OC)c(OC)c2)cc1 = < 10 nM
• COc1cc(-c2n[nH]nc2-c2ccc3ccccc3n2)cc(OC)c1OC = 99 nM
• COc1cc(-c2n[nH]nc2-c2ccc3c(c2)OCCO3)cc(OC)c1OC = < 10 nM

----------
- Tested on: MDA-MB-435
- method: Growth inhibition of human MDA-MB-435 cells after 48 hrs by sulforhodamine B assay
- Format: functional
- test.conditions: MDA-MB-435, 48 h
# maps each entry to its GI50
metric.name: GI50

- COc1ccc(-c2nn[nH]c2-c2cc(OC)c(OC)c(OC)c2)cc1: < 10 nM
- COc1cc(-c2n[nH]nc2-c2ccc3c(c2)OCCO3)cc(OC)c1OC: < 10 nM
- COc1cc(-c2n[nH]nc2-c2ccc3ccccc3n2)cc(OC)c1OC: < 10 nM
- COc1ccc(-c2n[nH]nc2-c2cc(OC)cc(OC)c2)cc1: < 10 nM
- COc1cc(-c2n[nH]nc2-c2ccc3c(c2)OCO3)cc(OC)c1OC: 90 nM
- Clc1ccc(-c2n[nH]nc2-c2ccccn2)c(Cl)c1: 2200 nM

----------
# maps each entry to its GI50
- System: SR
- method: Growth inhibition of human SR cells after 48 hrs by sulforhodamine B assay
- Assay type: functional
metric.name: GI50 (nM)

- Clc1ccc(-c2n[nH]nc2-c2ccccn2)c(Cl)c1: 5430
- COc1cc(-c2n[nH]nc2-c2ccc3ccccc3n2)cc(OC)c1OC: 21
- COc1cc(-c2n[nH]nc2-c2ccc3c(c2)OCO3)cc(OC)c1OC: 40

----------
- Test system: MCF7
- method: Growth inhibition of human MCF7 cells after 48 hrs by sulforhodamine B assay
- Format: functional
- test.conditions: MCF7, 48 h
# maps each entry to its GI50
metric.name: GI50 (µM)

• Clc1ccc(-c2n[nH]nc2-c2ccccn2)c(Cl)c1 = 2.58
• COc1ccc(-c2n[nH]nc2-c2cc(OC)cc(OC)c2)cc1 = 0.025
• COc1cc(-c2n[nH]nc2-c2ccc3c(c2)OCO3)cc(OC)c1OC = 0.08
• COc1cc(-c2n[nH]nc2-c2ccc3ccccc3n2)cc(OC)c1OC = 0.027

----------
- method: Growth inhibition of human SW620 cells after 48 hrs by sulforhodamine B assay
- Type: functional
- test.conditions: SW-620, 48 h
# maps each entry to its GI50
metric.name: GI50 (nM)

- COc1ccc(-c2n[nH]nc2-c2cc(OC)cc(OC)c2)cc1: 30
- COc1cc(-c2n[nH]nc2-c2ccc3ccccc3n2)cc(OC)c1OC: 41
- COc1cc(-c2n[nH]nc2-c2ccc3c(c2)OCO3)cc(OC)c1OC: 110
- Clc1ccc(-c2n[nH]nc2-c2ccccn2)c(Cl)c1: 4400

----------
- method: Growth inhibition of human HCT116 cells after 48 hrs by sulforhodamine B assay
- Type: functional
- test.conditions: HCT-116, 48 h
# maps each entry to its GI50
metric.name: GI50 (nM)

• Clc1ccc(-c2n[nH]nc2-c2ccccn2)c(Cl)c1 = 2890
• COc1cc(-c2n[nH]nc2-c2ccc3ccccc3n2)cc(OC)c1OC = 40
• COc1cc(-c2n[nH]nc2-c2ccc3c(c2)OCO3)cc(OC)c1OC = 180

----------
- method: Growth inhibition of human SF268 cells after 48 hrs by sulforhodamine B assay
- Assay type: functional
- test.conditions: SF-268, 48 h, read-out: LD50 (the source's name)
# maps each entry to its CC50
metric.name: CC50

• COc1ccc(-c2nn[nH]c2-c2cc(OC)c(OC)c(OC)c2)cc1 = > 100 µM
• COc1ccc(-c2n[nH]nc2-c2cc(OC)cc(OC)c2)cc1 = > 100 µM
• Clc1ccc(-c2n[nH]nc2-c2ccccn2)c(Cl)c1 = > 100 µM
• COc1cc(-c2n[nH]nc2-c2ccc3c(c2)OCO3)cc(OC)c1OC = > 100 µM
• COc1cc(-c2n[nH]nc2-c2ccc3ccccc3n2)cc(OC)c1OC = > 100 µM
• COc1cc(-c2n[nH]nc2-c2ccc3c(c2)OCCO3)cc(OC)c1OC = > 100 µM

----------
- method: Growth inhibition of human IGROV1 cells after 48 hrs by sulforhodamine B assay
- Type: functional
- test.conditions: IGROV-1, 48 h
# maps each entry to its GI50
metric.name: GI50 (µM)

- COc1ccc(-c2n[nH]nc2-c2cc(OC)cc(OC)c2)cc1: 0.051
- COc1cc(-c2n[nH]nc2-c2ccc3ccccc3n2)cc(OC)c1OC: 0.065
- Clc1ccc(-c2n[nH]nc2-c2ccccn2)c(Cl)c1: 5.94
- COc1cc(-c2n[nH]nc2-c2ccc3c(c2)OCCO3)cc(OC)c1OC: 0.033

----------
- Test system: ACHN
- method: Growth inhibition of human ACHN cells after 48 hrs by sulforhodamine B assay
- Format: functional
# maps each entry to its GI50
metric.name: GI50 (nM)

- COc1cc(-c2n[nH]nc2-c2ccc3ccccc3n2)cc(OC)c1OC: 81
- Clc1ccc(-c2n[nH]nc2-c2ccccn2)c(Cl)c1: 1750
- COc1cc(-c2n[nH]nc2-c2ccc3c(c2)OCO3)cc(OC)c1OC: 710
- COc1ccc(-c2n[nH]nc2-c2cc(OC)cc(OC)c2)cc1: 145

----------
# maps each entry to its GI50
- System: K562
- method: Growth inhibition of human K562 cells after 48 hrs by sulforhodamine B assay
- Type: functional
- test.conditions: K562, 48 h
metric.name: GI50

• Clc1ccc(-c2n[nH]nc2-c2ccccn2)c(Cl)c1 = 5.5 µM
• COc1cc(-c2n[nH]nc2-c2ccc3c(c2)OCO3)cc(OC)c1OC = 0.05 µM
• COc1ccc(-c2n[nH]nc2-c2cc(OC)cc(OC)c2)cc1 = < 0.01 µM
• COc1cc(-c2n[nH]nc2-c2ccc3c(c2)OCCO3)cc(OC)c1OC = < 0.01 µM
• COc1cc(-c2n[nH]nc2-c2ccc3ccccc3n2)cc(OC)c1OC = 0.026 µM
• COc1ccc(-c2nn[nH]c2-c2cc(OC)c(OC)c(OC)c2)cc1 = < 0.01 µM

----------
- method: Growth inhibition of human Hs 578T cells after 48 hrs by sulforhodamine B assay
- Format: functional
# maps each entry to its GI50
metric.name: GI50

- COc1ccc(-c2nn[nH]c2-c2cc(OC)c(OC)c(OC)c2)cc1: < 10 nM
- COc1cc(-c2n[nH]nc2-c2ccc3c(c2)OCO3)cc(OC)c1OC: 440 nM
- COc1ccc(-c2n[nH]nc2-c2cc(OC)cc(OC)c2)cc1: 41 nM
- COc1cc(-c2n[nH]nc2-c2ccc3c(c2)OCCO3)cc(OC)c1OC: 668 nM
- Clc1ccc(-c2n[nH]nc2-c2ccccn2)c(Cl)c1: 11600 nM

----------
- Test system: A549
- method: Growth inhibition of human A549/ATCC cells after 48 hrs by sulforhodamine B assay
- Format: functional
- test.conditions: A549, 48 h
metric.name: log10 of GI50 (log10 of the value in nM)

* COc1cc(-c2n[nH]nc2-c2ccc3c(c2)OCCO3)cc(OC)c1OC | 1.36
* COc1ccc(-c2n[nH]nc2-c2cc(OC)cc(OC)c2)cc1 | 1.57
* COc1cc(-c2n[nH]nc2-c2ccc3c(c2)OCO3)cc(OC)c1OC | 2.46
* COc1cc(-c2n[nH]nc2-c2ccc3ccccc3n2)cc(OC)c1OC | 1.73
* Clc1ccc(-c2n[nH]nc2-c2ccccn2)c(Cl)c1 | 3.69

----------
- method: Growth inhibition of human DU145 cells after 48 hrs by sulforhodamine B assay
- Format: functional
- test.conditions: DU-145, 48 h
# maps each entry to its GI50
metric.name: GI50 (nM)

- COc1cc(-c2n[nH]nc2-c2ccc3c(c2)OCO3)cc(OC)c1OC: 350
- COc1cc(-c2n[nH]nc2-c2ccc3ccccc3n2)cc(OC)c1OC: 27
- Clc1ccc(-c2n[nH]nc2-c2ccccn2)c(Cl)c1: 1410
- COc1ccc(-c2n[nH]nc2-c2cc(OC)cc(OC)c2)cc1: 45
- COc1cc(-c2n[nH]nc2-c2ccc3c(c2)OCCO3)cc(OC)c1OC: 25
